Reported values of log10 of TGI for individual entries
test system: NCI-H23 lung; assay: NCI tumour cell line growth inhibition, 48 h
The common logarithm of TGI in µM is what is listed.

SMILES STRING: CN(C)CCOc1nc2c3cccnc3cc(-c3cccc(Cl)c3)c2c2ncccc12
log10 of TGI: 0.52

# log10 of TGI lookup, item O=C(c1cc(Br)ccc1O)c1cc(Br)ccc1O
1.55

Next molecule: COc1cc(C)cc2c1C(=O)C(Br)=CC2=O
1.60

Next molecule: COc1cc2nc(-c3ccc(-n4cncc4-c4ccc(N)cc4)cc3)sc2c(OC)c1OC
1.37

Next molecule: Cc1ccccc1-n1c(/C=C\c2ccccn2)nc2ccccc2c1=O
1.76

Next molecule: CCOC(=O)c1c2c(c(O)c3ccccc3c(O)n(-c3ccc(C)cc3)c1C)C(=O)C=CC2=O
1.72

Next molecule: CCc1ccccc1-n1c2nc(=O)n(C)c(=O)c-2nc2ccccc21
1.26

###

Reported values of TGI for individual entries
test system: U251 CNS; experiment: NCI tumour cell line growth inhibition, 48 h
Where a SMILES comes first, the peptide text is derived from it. [ ]: non-standard residue; d: D form. The star is where a group is joined. ξ: configuration not given here. ξPhe(4-NO2) = NC(Cc1ccc([N+](=O)[O-])cc1)C(=O)O; Boc = CC(C)(C)OC(=O)*; OBn = c1ccc(CO*)cc1

MOLECULE: OCCSCc1cc2c(O)c(c1)Cc1cc(CSCCO)cc(c1O)Cc1cc(CSCCO)cc(c1O)Cc1cc(CSCCO)cc(c1O)C2
TGI: 16.8 µM
//
MOLECULE: CC(C)(C)OC(=O)NC(Cc1ccc([N+](=O)[O-])cc1)C(=O)NCC(=O)OCc1ccccc1 (stereo not drawn) (Boc-[ξPhe(4-NO2)]-Gly-OBn)
TGI: 40.6 µM
//
MOLECULE: O=C(Nc1cccc(C(F)(F)F)c1)c1cccc(NC2=C(Cl)C(=O)N(Cc3ccccc3)C2=O)c1
TGI: > 100 µM
//
MOLECULE: O=C(O)c1ccc(N=Nc2cc(S(=O)(=O)O)c3cccnc3c2O)cc1
TGI: > 100 µM
//
MOLECULE: O=C(O)c1ccc(S(=O)(=O)N=Nc2c(O)[nH]c3ccccc23)cc1
TGI: > 100 µM

From here, focus on the item given below.
# TGI lookup, item CC[C@@H](C)[C@H]([C@H](CC(=O)N1CCC[C@@H]1[C@@H](OC)[C@H](C)C(=O)N[C@H](Cc1ccccc1)c1nccs1)OC)N(C)C(=O)[C@H](NC(=O)[C@@H](C(C)C)N(C)C)C(C)C
0.00143 µM

###

test system: A549 NSCLC; assay: NCI tumour cell line growth inhibition, 48 h
REPORTED ENDPOINT: TGI

# TGI lookup, item CCCCSC1=N/C(=C\c2ccco2)C(=O)N1
> 100 µM

Next molecule: COc1ccc(-c2onc(-c3c(C)cc(C)cc3C)c2C2=NCCCN2)cc1
> 100 µM

Next molecule: COc1ccc2c(c1)N(C(C)=O)CN1C(=O)CCC21 (centres undefined)
> 100 µM

Next molecule: CC(=O)O[C@H]1C(=O)[C@@]2(C)[C@H]([C@H](OC(=O)c3ccc([N+](=O)[O-])cc3)[C@]3(O)C[C@H](OC(=O)[C@H](O)[C@@H](NC(=O)c4ccccc4)c4ccccc4)C(C)=C1C3(C)C)[C@]1(OC(C)=O)CO[C@@H]1C[C@@H]2O
> 25 µM

###

Reported values of TGI for individual entries
tested on: M14 melanoma; experiment: NCI tumour cell line growth inhibition, 48 h

Below, 3 compounds whose answers are already recorded.
COMPOUND: CC(=O)OCC(OC(C)=O)C(OC(C)=O)C(OC(C)=O)C(=O)CNn1c(-c2ccccc2)nc2ccc(Br)cc2c1=O (configuration not stated)
ENDPOINT RESULT: > 100 µM

COMPOUND: COc1ccc(/C=C/c2nc(=S)[nH][nH]2)cc1
ENDPOINT RESULT: > 100 µM

COMPOUND: O=C(NCCCNC(=O)OCc1ccc2c(Br)cc(Br)c(O)c2n1)OCc1ccc2c(Br)cc(Br)c(O)c2n1
ENDPOINT RESULT: > 100 µM

# returns recorded TGI (system: M14 melanoma) for CC(=N/NC(=S)Nc1c(C)n(C)n(-c2ccccc2)c1=O)/C(C)=N\NC(=S)Nc1c(C)n(C)n(-c2ccccc2)c1=O
> 100 µM

Next compound: COC1=CC(C2c3cc4c(cc3[C@@H](Nc3ccc([N+](=O)[O-])cc3)C3COC(=O)[C@H]23)OCO4)=CC(=O)C1=O (some centres not stated)
> 37.7 µM

Next compound: CC1(C)C=[N+]([O-])C(C)(C)N1
> 100 µM

Next compound: CC1=CC2(O)OC3(CC2=C(C)C)C(C)CCC13 (configuration not stated)
> 100 µM

Next compound: CC(C)(C)C1CCC2(CC1)CCN(CCCN1CCOCC1)CC2
27.8 µM

Next compound: CC1(C)CCCCCCCCCC(C)(CCCO)C1=O (configuration not stated)
27.4 µM

Next compound: COc1cc2c(cc1OC)C1C(O)C(OC)C=C3CC[N+](C)(C2)C31 (configuration not stated)
> 100 µM

Next compound: COc1ccc(NC(=O)c2sc3nc(C)c(C(O)c4ccc(OC)cc4)cc3c2N)cc1 (configuration not stated)
> 50 µM

Next compound: NC(N)=N/N=C/c1cccc(Cl)c1Cl
4.04 µM

Next compound: CCOC(=O)CNC(=O)CCCn1c(=O)c2c3ccccc3n(C)c2n2nnc(-c3ccccc3)c12
> 50 µM

Next compound: Cc1ccc(S(=O)(=O)[N-]C2C(=O)c3ccccc3C(=O)C2[n+]2cccc(C(N)=O)c2)cc1 (configuration not stated)
> 100 µM

Next compound: Cn1c(=O)c2c(nc(C[N+]3([O-])CCOCC3)n2C)n(C)c1=O
> 100 µM

Next compound: Cc1cn(CC2=NCC(C)(C)CN2)c(=O)[nH]c1=O
> 100 µM

Next compound: CCOC(=O)c1nnsc1NC(=O)Nc1ccc(Cl)cc1
> 100 µM

###

tested on: U251 CNS; experiment: NCI tumour cell line growth inhibition, 48 h; in the data active = GI50 below about 0.43 µM; inactive = the rest
I would appreciate it if you answered using one of these outcomes: active, inactive

See these solved cases before continuing.
COMPOUND: COc1cccc2c1cc([N+](=O)[O-])c1c(C(=O)O)cc3c(c12)OCO3
EXPERIMENTAL SYSTEM: U251 CNS
CLASSIFICATION: inactive

COMPOUND: O=C(NCCCNC(=O)OCc1ccc2c(Br)cc(Br)c(O)c2n1)OCc1ccc2c(Br)cc(Br)c(O)c2n1
EXPERIMENTAL SYSTEM: U251 CNS
CLASSIFICATION: inactive

COMPOUND: COc1cc(/C=C2\CC3C4CC=C5C[C@@H](N6CCCC6)CC[C@]5(C)C4CC[C@]3(C)[C@H]2OC(C)=O)ccc1OCCN1CCCCC1 (some centres not stated)
EXPERIMENTAL SYSTEM: U251 CNS
CLASSIFICATION: inactive

COMPOUND: COc1ccc(NC(=O)c2sc3nc(C)c(C(O)c4ccc(OC)cc4)cc3c2N)cc1 (configuration not stated)
EXPERIMENTAL SYSTEM: U251 CNS
CLASSIFICATION: inactive

COMPOUND: Cc1c2ncccc2nc2[nH]c3ccc(OCCN(C)C)cc3c12
EXPERIMENTAL SYSTEM: U251 CNS
CLASSIFICATION: inactive

# lookup: test call for CCCCCCCCCCCCOC1C(C(COC2OC(C(O)CN3CCCCC3)C3OC(C)(C)OC23)NC(=O)Nc2ccccc2)OC2OC(C)(C)OC21 (configuration not stated)
inactive

Next compound: O=C(CC1(O)C(=O)Nc2ccc(Br)cc21)c1ccc(C(=O)NCC2CCC3(CC2)OOC2(CCCCC2)OO3)cc1 (configuration not stated)
inactive

Next compound: COc1ccc2c(c1OC)-c1c(c3ccc([N+](=O)[O-])cc3c(=O)n1CCCN=[N+]=[N-])C2=O
inactive

Next compound: CCOC(=O)CNC(=O)CCCn1c(=O)c2c3ccccc3n(C)c2n2nnc(-c3ccccc3)c12
inactive

Next compound: COc1ccc(C2C(c3ccccc3)C(=O)N2c2cc(OC)c(OC)c(OC)c2)cc1I (configuration not stated)
active

Next compound: O=C(O)c1ccc(-c2ccc(C(=O)O)cc2I)c(I)c1
inactive

Next compound: COc1ccc2[nH]c(-c3cccc(N(C)C)c3)cc(=O)c2c1
inactive

Next compound: Cc1ccc(C2SCc3nc4ccc(C(=O)c5ccccc5)cc4n32)cc1 (configuration not stated)
inactive

###

Reported values of log10 of TGI for individual entries
system: SK-OV-3 ovarian; assay: NCI tumour cell line growth inhibition, 48 h
The common logarithm of TGI in µM is what is listed.

# log10 of TGI lookup, item CCCCCCCCCCCCOC1C(C(COC2OC(C(O)CN3CCCCC3)C3OC(C)(C)OC23)NC(=O)Nc2ccccc2)OC2OC(C)(C)OC21 (stereo not given)
1.64

Next compound: COc1cccc(/C(C=O)=C(\Cl)c2ccc(OC)c(OC)c2)c1
1.77

Next compound: CS(=O)(=O)OCCN(CCOS(C)(=O)=O)c1ccc(C=Nc2ccc3oc(=O)ccc3c2)cc1
1.00

Next compound: COc1ccc(NC(=O)Nc2ccc(Nc3nc(C)cc(Nc4ccc(C)cc4)n3)cc2)cc1
0.82

Next compound: CN(C)CCOc1nc2c3cccnc3cc(-c3cccc(Cl)c3)c2c2ncccc12
1.26

Next compound: Cc1ccc2[nH]c(C(=O)NN3C(=O)CSC34CCCC(C)C4)c(-c3ccccc3)c2c1 (stereo not given)
1.68
